The values you see were collected from patent US9464064B2.

Here, each record is paired with measured pIC50 data.
target-or-system: HCV NS3 helicase NS3h_1b(con1) (Hepatitis C virus genotype 1b)
Construct: truncated C-terminally His-tagged NS3 proteins lacking the N-terminal protease, called NS3h; His-tag (C); made in house
Sequence (Q9WMX2 1192-1657): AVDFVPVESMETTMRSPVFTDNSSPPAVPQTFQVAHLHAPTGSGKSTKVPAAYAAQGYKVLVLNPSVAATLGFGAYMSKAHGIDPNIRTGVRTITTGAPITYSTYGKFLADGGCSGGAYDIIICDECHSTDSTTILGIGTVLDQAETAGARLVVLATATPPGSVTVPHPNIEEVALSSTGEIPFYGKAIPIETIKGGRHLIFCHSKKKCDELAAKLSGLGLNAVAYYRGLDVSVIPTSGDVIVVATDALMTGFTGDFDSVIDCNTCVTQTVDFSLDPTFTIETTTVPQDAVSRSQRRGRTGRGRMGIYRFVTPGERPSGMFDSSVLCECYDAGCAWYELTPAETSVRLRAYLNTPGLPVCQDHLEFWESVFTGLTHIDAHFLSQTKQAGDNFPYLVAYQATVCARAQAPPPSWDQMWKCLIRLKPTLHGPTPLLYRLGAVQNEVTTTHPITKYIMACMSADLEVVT
assay-explanation: biochemical
Assay type: biochemical, hepatitis C virus genotype 1b(con1)
measurement-conditions: MBHA, DNA unwinding; mean ± SD of three titrations; read-out: Helicase IC50
Would you please state pIC50, meaning minus log10 of the concentration in mol/L, as a bare number?

In the examples that follow, each entry is paired with its recorded pIC50.
compound	test-readout	test-value
Cc1ccc2nc(-c3ccc4nc(-c5ccc(NC(=O)c6ccc(C(F)(F)F)c(F)c6)cc5)sc4c3)sc2c1S(=O)(=O)O	pIC50	4.77
Cc1ccc2nc(-c3ccc4nc(-c5ccc(NC(=O)c6cccc(C(F)(F)F)c6F)cc5)sc4c3)sc2c1S(=O)(=O)O	pIC50	5.04
Cc1cc2sc(-c3ccc(N)cc3)nc2cc1S(=O)(=O)O	pIC50	3.91
Cc1ccc2nc(-c3ccc4nc(-c5ccc6nc(-c7ccc8nc(-c9ccc(N)cc9)sc8c7)sc6c5)sc4c3)sc2c1S(=O)(=O)O	pIC50	6.10
Cc1ccc2nc(-c3ccc4nc(-c5ccc(NC(=O)c6ccc(NC(=O)OCC7c8ccccc8-c8ccccc87)cc6)cc5)sc4c3)sc2c1S(=O)(=O)O	pIC50	5.27

Returns the measured pIC50 for the input compound. Input: CCN(CC)c1ccc(-c2nc3ccc(C)c(S(=O)(=O)O)c3s2)cc1 4.48

Cool, now Cc1ccc(NC(=O)Nc2ccc(-c3nc4ccc(-c5nc6ccc(C)c(S(=O)(=O)O)c6s5)cc4s3)cc2)cc1 5.28

Now give it for Cc1ccc2nc(-c3ccc4nc(-c5ccc(NC(=O)c6ccccc6C(F)(F)F)cc5)sc4c3)sc2c1S(=O)(=O)O too. 4.85

And what about the compound CO[C@@H]1[C@H](O)C[C@@H](O[C@@H]2C[C@H](Oc3cc4cc5c(c(O)c4c(O)c3C)C(=O)[C@@H](O[C@H]3C[C@@H](O[C@H]4C[C@@H](O[C@H]6C[C@](C)(O)[C@@H](OC(C)=O)[C@H](C)O6)[C@H](O)[C@@H](C)O4)[C@H](O)[C@@H](C)O3)[C@H]([C@H](OC)C(=O)[C@@H](O)[C@@H](C)O)C5)O[C@H](C)[C@@H]2OC(C)=O)O[C@@H]1C [Chromomycin A3, reference compound] ? 6.82

One more compound: Cc1ccc2nc(-c3ccc4nc(-c5ccc(NC(=O)c6ccc7nc(-c8ccc(NC(=O)OCC9c%10ccccc%10-c%10ccccc%109)cc8)sc7c6)cc5)sc4c3)sc2c1S(=O)(=O)O.N 5.40

Param item: Cc1cc(C(O)(c2ccc(Nc3ccccc3)cc2)c2ccc(Nc3ccc(S(=O)(=O)O)cc3)cc2)ccc1N (centres unmarked) [Compound 3, reference compound] 4.77
